The reported measurements were obtained from the emibetuzumab library of Makowski et al. (2022).

B1: VH:VL chains; a variant is named by its letters at X, in order (parent)
chain 1: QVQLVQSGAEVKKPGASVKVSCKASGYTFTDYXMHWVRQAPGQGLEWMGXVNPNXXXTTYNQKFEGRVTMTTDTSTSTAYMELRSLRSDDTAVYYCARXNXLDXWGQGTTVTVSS
chain 2: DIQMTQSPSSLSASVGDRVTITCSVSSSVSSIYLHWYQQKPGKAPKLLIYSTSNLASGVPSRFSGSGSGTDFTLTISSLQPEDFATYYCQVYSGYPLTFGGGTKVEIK

variants of: B1; assay: yeast display scFab, FACS + sequencing
measurement.type: non-specific binding call

[[record]]
mutation_code = "FRGTGSWA"
experimental_result = "binds"

[[record]]
mutation_code = "FRRGGALD"
experimental_result = "binds"

[[record]]
mutation_code = "DAGGAAAV"
experimental_result = "no binding"

[[record]]
mutation_code = "FRGRDDWA"
experimental_result = "no binding"

[[record]]
mutation_code = "DRAGDSGA"
experimental_result = "no binding"

[[record]]
mutation_code = "DAGGADAV"
experimental_result = "no binding"

[[record]]
mutation_code = "VTEGDAGA"
experimental_result = "no binding"

[[record]]
mutation_code = "ATGGDDWF"
experimental_result = "no binding"

[[record]]
mutation_code = "YAGGDDSA"
experimental_result = "no binding"

[[record]]
mutation_code = "DTTRGAVA"
experimental_result = "no binding"

[[record]]
mutation_code = "YKGRGFVY"
experimental_result = "binds"

[[record]]
mutation_code = "YRARGAGF"
experimental_result = "binds"

[[record]]
mutation_code = "VTTRADVY"
experimental_result = "no binding"

[[record]]
mutation_code = "YRAKGSLA"
experimental_result = "binds"

[[record]]
mutation_code = "FRGRGYVA"
experimental_result = "binds"

[[record]]
mutation_code = "VKGRGAWA"
experimental_result = "binds"

[[record]]
mutation_code = "VRARGDVS"
experimental_result = "no binding"

[[record]]
mutation_code = "YRREGSLA"
experimental_result = "binds"

[[record]]
mutation_code = "VRTKAVAY"
experimental_result = "binds"

[[record]]
mutation_code = "ARGRGSVA"
experimental_result = "binds"

[[record]]
mutation_code = "SATTDSVD"
experimental_result = "no binding"

[[record]]
mutation_code = "YRGASAAA"
experimental_result = "binds"

[[record]]
mutation_code = "SEARSFGV"
experimental_result = "no binding"

[[record]]
mutation_code = "YRARSSGA"
experimental_result = "binds"

[[record]]
mutation_code = "VTGEDDVD"
experimental_result = "no binding"

[[record]]
mutation_code = "YKGRSAAA"
experimental_result = "binds"

[[record]]
mutation_code = "YRGRGFAS"
experimental_result = "binds"

[[record]]
mutation_code = "DGGTNDVA"
experimental_result = "no binding"

[[record]]
mutation_code = "SETTDSSA"
experimental_result = "no binding"

[[record]]
mutation_code = "DTGTGDSA"
experimental_result = "no binding"

[[record]]
mutation_code = "YRTRGSWD"
experimental_result = "binds"

[[record]]
mutation_code = "SRRGGYVS"
experimental_result = "binds"

[[record]]
mutation_code = "VKGRGFWY"
experimental_result = "binds"

[[record]]
mutation_code = "FAGGGDLV"
experimental_result = "no binding"

[[record]]
mutation_code = "VRERGSWD"
experimental_result = "binds"

[[record]]
mutation_code = "YAGRGDVF"
experimental_result = "no binding"

[[record]]
mutation_code = "YAARGAWD"
experimental_result = "binds"

[[record]]
mutation_code = "YKRGDDSS"
experimental_result = "no binding"

[[record]]
mutation_code = "VTRGDSGA"
experimental_result = "no binding"

[[record]]
mutation_code = "DTTEASLV"
experimental_result = "no binding"

[[record]]
mutation_code = "YAGGDSGV"
experimental_result = "no binding"

[[record]]
mutation_code = "FRGRDSWS"
experimental_result = "binds"

[[record]]
mutation_code = "VEKGGDGV"
experimental_result = "no binding"

[[record]]
mutation_code = "VRAEGSVA"
experimental_result = "binds"

[[record]]
mutation_code = "YRGRSSWS"
experimental_result = "binds"

[[record]]
mutation_code = "YRARSAVD"
experimental_result = "binds"

